Reference source for all entries: PubChem BioAssay

I'd appreciate it if you could supply composite z-score values for the items below.
tested on: PRMT1 (protein arginine N-methyltransferase 1); assay: small molecules binding arginine methyltransferase PRMT1 – biochemical, small-molecule microarray, 635 nm fluorescence, primary screen (AID 1088); details: higher = more signal;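 note: binding of Prmt1 protein to compounds spotted on small-molecule microarray slides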
Numbers only.

Give composite z-score for each listed item.
1. CCCC=C(CCC)[C@@H](NS(=O)(=O)c1ccc(C(F)(F)F)cc1)c1ccccc1
2. C=CCOC(=O)[C@@H]1[C@H]2C(=O)O[C@H](c3ccccc3)[C@H](c3ccccc3)N2[C@H](c2ccc(OCCOC(=O)[C@@H]3C[C@@H]4C(=O)N[C@@H](CCCC[N+](C)(C)C)C(=O)N4[C@@H]3c3ccc(O)cc3)cc2)[C@@]12C(=O)Nc1ccc(I)cc12
3. COC(=O)[C@@]1(Cc2ccccc2)[C@H]2c3cc(C(=O)N(C)C)n(Cc4ccc(C)o4)c3C[C@H]2CN1C(=O)c1ccccc1

Result:
1: 0.907; 2: 1.53; 3: 0.163

Give composite z-score for each listed item.
1. [N-]=[N+]=Nc1ccccc1C[C@@]1(C(=O)N2CCOCC2)N=C(c2ccc(OCCCO)cc2)O[C@@H]1c1ccccc1
2. O=c1cccc(-c2ccc([N+](=O)[O-])cc2)o1
3. CN1C(=O)C2C=CC(C(O)c3cccn3C)N(Nc3ccc([N+](=O)[O-])cc3[N+](=O)[O-])C2C1=O (stereo not drawn)
4. C=C[C@H]1C(C(=O)OCC)=CC[C@@H](c2ccccc2)N1S(=O)(=O)c1ccc(C)cc1
5. CN(C)C(=O)[C@@]1(Cc2ccccc2)N=C(c2ccc(OCCCO)cc2)O[C@H]1c1ccccc1
6. COc1ccc([Si](C)(C)[C@H]2[C@H](CC(=O)N3CCC[C@H]3CO)O[C@@]3(C(=O)N(Cc4ccc(N5CCOC5=O)cc4)c4ccccc43)[C@@H]2C)cc1
7. O=C(C1N=C(c2ccc(OCCCO)cc2)N(c2ccccc2)O1)N1CCCCC1 (stereo not drawn)

Result:
1: 1.54; 2: 1.03; 3: 0.0715; 4: 0.895; 5: 0.584; 6: 1.56; 7: 1.54

Give composite z-score for each listed item.
1. O=C1OCCC=C[C@H]2OC34C=CCN(c5ccc6ccccc6c5)C(=O)[C@H]3N(CCCO)C(=O)[C@@H]4C12 (stereo partly drawn)
2. COCCOC(=O)N1C(=O)[C@@]2(c3ccccc31)[C@H](c1ccc(O)cc1)N1[C@H](c3ccccc3)[C@H](c3ccccc3)OC(=O)[C@H]1[C@@H]2C(=O)N1CCN(c2ncccn2)CC1
3. C=CCNC(=O)[C@@H]1[C@H]2C(=O)O[C@H](c3ccccc3)[C@H](c3ccccc3)N2[C@H](c2ccccc2OCCO)[C@@]12C(=O)N(C(=O)OCCOC)c1ccc(C#CC3(O)CCCCCC3)cc12
4. COc1cc(C(O)C2C=CC3C(=O)N(C)C(=O)C3N2Nc2ccccc2)cc(OC)c1OC (stereo not drawn)

Result:
[-1.63, 1.55, 1.56, 1.33]

Give composite z-score for each listed item.
1. CCOC(=O)C[C@H]1[C@H](OC(=O)c2ccc(C(=O)c3ccccc3)cc2)[C@@H](NC(=O)c2ccc(-c3ccccc3)cc2)c2cc(OCCCO)ccc2N1C(=O)Cc1ccc(OC)cc1
2. CN(C)C(=O)[C@]1(CCC(=O)OC(C)(C)C)N=C(c2ccc(OCCCO)cc2)O[C@@H]1c1ccccc1CN=[N+]=[N-]

Result:
1: 0.845; 2: 1.18
